Origin of measurements: patent US7078382

Could you please report measured Relative Binding Affinity for the items listed next?
Molecular target: T1, Flt-IgG (human, UniProt P17948 27-758, limits assumed)
T1 construct: Only described as 'a chimeric Flt-human Fc molecule'; captured by rabbit F(ab')2 to human IgG Fc; also called chimeric Flt-human Fc molecule; not shown: human IgG Fc
T1 sequence (P17948 27-758 limits assumed): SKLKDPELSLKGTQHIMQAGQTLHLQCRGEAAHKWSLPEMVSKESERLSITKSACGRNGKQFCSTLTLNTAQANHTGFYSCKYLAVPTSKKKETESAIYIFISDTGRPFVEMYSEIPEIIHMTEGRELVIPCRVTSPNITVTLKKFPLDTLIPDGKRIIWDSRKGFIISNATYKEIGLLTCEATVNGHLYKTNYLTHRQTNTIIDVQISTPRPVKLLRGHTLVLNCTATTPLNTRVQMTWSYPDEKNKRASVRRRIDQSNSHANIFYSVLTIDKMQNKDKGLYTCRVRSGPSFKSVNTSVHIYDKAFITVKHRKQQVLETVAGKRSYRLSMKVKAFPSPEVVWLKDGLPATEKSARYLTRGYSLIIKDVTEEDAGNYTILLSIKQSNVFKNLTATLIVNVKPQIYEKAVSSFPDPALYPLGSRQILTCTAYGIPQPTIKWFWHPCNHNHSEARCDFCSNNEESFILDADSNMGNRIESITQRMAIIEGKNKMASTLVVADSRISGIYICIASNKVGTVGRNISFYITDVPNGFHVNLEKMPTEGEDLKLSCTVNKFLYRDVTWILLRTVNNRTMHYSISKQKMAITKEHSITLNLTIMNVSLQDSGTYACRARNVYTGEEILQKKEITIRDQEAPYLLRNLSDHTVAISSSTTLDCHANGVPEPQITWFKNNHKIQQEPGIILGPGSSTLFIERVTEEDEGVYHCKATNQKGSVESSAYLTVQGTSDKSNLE
Assay: competition ELISA, biotinylated native VEGF as tracer, Flt-IgG captured by anti-human Fc

Qu. Give me measured Relative Binding Affinity, please, for this binder: LK-VRB-3s (ligand) APMAEGGGQNHHEVVKIEDVFKRSSCHPIETLVDIFQEYPDEIEYIFKPSCVPLMRCGGCCNDEGLECVPTEESNITMQIMRIKPHQGQHIGEMSFLQHNKCECRPKKD
Ans. 400 fold of native VEGF (8-109)

Qu. Give me measured Relative Binding Affinity, please, for this binder: LK-VRB-4s (ligand) APMAEGGGQNHHEVVKIEDVFERSICHPIETLVDIFQEYPDEIEYIFKPSCVPLMRCGGCCNDEGLECVPTEESNITMQIMRIKPHQGQHIGEMSFLQHNKCECRPKKD
Ans. 200 fold of native VEGF (8-109)

Qu. Give me measured Relative Binding Affinity, please, for this binder: LK-VRB-9s (ligand) APMAEGGGQNHHEVVKFMDVYRRSYCHPIETLVDIFQEYPDEIEYIFKPSCVPLMRCGGCCNSEMRECVPTEESNITMQIMRIKPHQGQHIGEMSFLQHNKCECRPKKD
Ans. 300 fold of native VEGF (8-109)

Qu. Give me measured Relative Binding Affinity, please, for this binder: LK-VRB-7s* (ligand) APMAEGGGQNHHEVVKFEDVYQRSYCHPIETLVDIFQEYPDEIEYIFKPSCVPLMRCGGCCNSEMRECVPTEESNITMQIMRIKPHQGQHIGEMSFLQHNKCECRPKKD
Ans. > 15000 fold of native VEGF (8-109)

Qu. Give me measured Relative Binding Affinity, please, for this binder: LK-VRB-8s* (ligand) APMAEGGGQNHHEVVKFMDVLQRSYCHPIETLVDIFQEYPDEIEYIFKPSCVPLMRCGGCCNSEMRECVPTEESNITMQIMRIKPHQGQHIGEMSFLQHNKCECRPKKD
Ans. > 21000 fold of native VEGF (8-109)

Qu. Give me measured Relative Binding Affinity, please, for this binder: LK-VRB-1s* (ligand) APMAEGGGQNHHEVVKFEDVLRRSSCHPIETLVDIFQEYPDEIEYIFKPSCVPLMRCGGCCNDEGLECVPTEESNITMQIMRIKPHQGQHIGEMSFLQHNKCECRPKKD
Ans. 6000 fold of native VEGF (8-109)
